B1: Unconventional myosin-Ie, residues 1051 to 1108; numbered along this chain, Q12965 (parent)
chain: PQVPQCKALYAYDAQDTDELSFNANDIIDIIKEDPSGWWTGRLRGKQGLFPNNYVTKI

- Variants of: B1
- Test: abundance fitness (aPCA) (normalised: wild type 0, dead -1); higher = more abundant; growth selection in yeast, the domain comes from the species named
- Condition notes: Homo sapiens
The following variants are listed with their measured abundance fitness values.
Keep it simple and answer with nothing but the number.

Prompt line: Looking for the measured abundance fitness of "F22E" , can you help?
Response line: -0.858

Prompt line: Requested field: abundance fitness. Item: "F22N"
Response line: -0.816

Prompt line: Consider the variant "S36D" and give its measured abundance fitness.
Response line: -0.033

Prompt line: // query abundance fitness value for entry "S36P"
Response line: -0.883

Prompt line: What value of abundance fitness has been recorded for this entry: "E33Q"
Response line: 0.074

Prompt line: Recorded abundance fitness for "N23L" , please?
Response line: -0.065

Prompt line: Record request: abundance fitness value, item "F50G"
Response line: -0.826

Prompt line: If you can, please state the reported abundance fitness value of "E33W" .
Response line: -0.819

Others:
Prompt line: abundance fitness lookup needed for "E33P" , thanks.
Response line: -0.751

Prompt line: Recorded abundance fitness of "D34P" , please.
Response line: -0.15

Prompt line: Need abundance fitness, item "Y54V"
Response line: -0.145

Data credit: the Human Domainome abundance scans (Beltran et al. 2025)
